Assay: gradient 5% acetonitrile 3 min, to 50% in 2 min, to 85% in 15 min, held 3 min, 100 µL/min
Conditions: column: Zorbax Extend-C18 2.1 x 50 mm; eluents: water / acetonitrile, 0.1% formic acid
QUANTITY: RP-LC retention time (s)

Consider the following illustrative entries.
MOLECULAR_STRING: Cc1noc(-c2cc(=O)n(CC(=O)NCc3ccccc3Cl)c3ccccc23)n1
RP-LC retention time (s): 866
--
MOLECULAR_STRING: Cn1nc(-c2nnc(-c3ccccc3)o2)c2c1CCN(S(=O)(=O)c1ccc(C(C)(C)C)cc1)C2
RP-LC retention time (s): 1150
--
MOLECULAR_STRING: Cc1nnc(SCC(=O)N2c3ccccc3CCc3ccccc32)s1
RP-LC retention time (s): 897
--
MOLECULAR_STRING: O=C(Nc1ccccc1)N1CCN(c2nc(-c3ccccc3)ns2)CC1
RP-LC retention time (s): 1020
--
MOLECULAR_STRING: CCn1ccc(NC(=O)Nc2cc(C)ccc2C)n1
RP-LC retention time (s): 869

(1) O=C(Cn1nc(N2CCCC2)c2ccccc2c1=O)Nc1cccc(Cl)c1
(2) CCC(CC)C(=O)N1CCC(N2CCN(CC)C2=O)CC1
Query: Quick one: lower RP-LC retention time, 1 or 2 ? Bench note: the answer is the label of the chosen record.
Reply: 2

(1) CCCCCn1c(=O)c2ccccc2n(Cc2nc(-c3cccc(Cl)c3)no2)c1=O
(2) CCN(CC)C(=O)c1ccc(O)c(OC)c1
Query: Lab note: check whether 1 or 2 shows the higher recorded RP-LC retention time. Bench note: the answer is the label of the chosen record.
Reply: 1
(1: 1100 s, 2: 718 s)
